Cited source: ChEMBL document CHEMBL3217712

assay: Biodistribution in mouse Cloudman S91 tumor bearing DBA2 mouse muscle at 10 mg/kg, ip after 72 hrs; type: ADME, organism-based, Muscle tissue; design: dose 10 mg/kg, route intraperitoneal; details: read-out: Drug uptake
measure: concentration at 72 h (ng/g)
Use ng/g as the unit, but write only the number.

// returns reported concentration at 72 h for input "CCNS(=O)(=O)c1ccc(Cl)c(-c2c3nc(c(-c4c(Cl)ccc(S(=O)(=O)NCC)c4Cl)c4ccc([nH]4)c(-c4c(Cl)ccc(S(=O)(=O)NCC)c4Cl)c4nc(c(-c5c(Cl)ccc(S(=O)(=O)NCC)c5Cl)c5ccc2[nH]5)CC4)CC3)c1Cl"
15

---

experiment: Biodistribution in mouse Cloudman S91 tumor bearing DBA2 mouse spleen at 10 mg/kg, ip after 72 hrs; assay type: ADME, organism-based; design: dose 10 mg/kg, route intraperitoneal; details: read-out: Drug uptake
measure: concentration at 72 h (ng/g)
Use ng/g as the unit, but write only the number.

// returns reported concentration at 72 h for input "CCNS(=O)(=O)c1ccc(Cl)c(-c2c3nc(c(-c4c(Cl)ccc(S(=O)(=O)NCC)c4Cl)c4ccc([nH]4)c(-c4c(Cl)ccc(S(=O)(=O)NCC)c4Cl)c4nc(c(-c5c(Cl)ccc(S(=O)(=O)NCC)c5Cl)c5ccc2[nH]5)CC4)CC3)c1Cl"
3000

---

experiment: Biodistribution in mouse Cloudman S91 tumor bearing DBA2 mouse liver at 10 mg/kg, ip after 72 hrs; assay type: ADME, organism-based; parameters: dose 10 mg/kg, route intraperitoneal; conditions: read-out: Drug uptake
measure: concentration at 72 h
Write your answer as a measured quantity: the number, then the unit.

// returns reported concentration at 72 h for input "CCNS(=O)(=O)c1ccc(Cl)c(-c2c3nc(c(-c4c(Cl)ccc(S(=O)(=O)NCC)c4Cl)c4ccc([nH]4)c(-c4c(Cl)ccc(S(=O)(=O)NCC)c4Cl)c4nc(c(-c5c(Cl)ccc(S(=O)(=O)NCC)c5Cl)c5ccc2[nH]5)CC4)CC3)c1Cl"
630 ng/g

---

test: Biodistribution in mouse Cloudman S91 tumor bearing DBA2 mouse heart at 10 mg/kg, ip after 24 hrs; format: ADME, organism-based; design: dose 10 mg/kg, route intraperitoneal; settings: read-out: Drug uptake
measure: concentration at 24 h (ng/g)
Use ng/g as the unit, but write only the number.

// returns reported concentration at 24 h for input "CCNS(=O)(=O)c1ccc(Cl)c(-c2c3nc(c(-c4c(Cl)ccc(S(=O)(=O)NCC)c4Cl)c4ccc([nH]4)c(-c4c(Cl)ccc(S(=O)(=O)NCC)c4Cl)c4nc(c(-c5c(Cl)ccc(S(=O)(=O)NCC)c5Cl)c5ccc2[nH]5)CC4)CC3)c1Cl"
800

---

test: Biodistribution in mouse Cloudman S91 tumor bearing DBA2 mouse blood at 10 mg/kg, ip after 2 hrs; assay type: ADME, organism-based; set-up: dose 10 mg/kg, route intraperitoneal; conditions: read-out: Drug uptake
measure: concentration at 2 h (ng/g)
Use ng/g as the unit, but write only the number.

// returns reported concentration at 2 h for input "CCNS(=O)(=O)c1ccc(Cl)c(-c2c3nc(c(-c4c(Cl)ccc(S(=O)(=O)NCC)c4Cl)c4ccc([nH]4)c(-c4c(Cl)ccc(S(=O)(=O)NCC)c4Cl)c4nc(c(-c5c(Cl)ccc(S(=O)(=O)NCC)c5Cl)c5ccc2[nH]5)CC4)CC3)c1Cl"
90
